B1: library; a variant is named by its letters at N, in order (parent)
chain: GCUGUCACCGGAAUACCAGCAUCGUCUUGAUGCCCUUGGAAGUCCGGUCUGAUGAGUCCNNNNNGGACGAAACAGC

Variants of: B1
Experiment: normalized RNA/DNA level without ligand (relative to sTRSVctl = 100) (log10 (% of sTRSVctl)); higher = less ribozyme self-cleavage, higher mRNA level
Details: HEK293T, reporter: mCherry (pCS4076), ligand present: no
normalized RNA/DNA level without ligand (log10) values for the variants below.
I'd appreciate a reply containing only the number, no unit.

GAGCC    1.85
CGUUU    1.53
CGGCC    2.03
UAAUA    1.56
CUUUU    1.91

Request: Please give the measured normalized RNA/DNA level without ligand (log10) for this variant: `CUCAA`
Response: 1.67

Request: Now give it for `UUGUG` too.
Response: 1.87

Request: What would you report for `CUAAA` ?
Response: 1.5

Request: Quick one: `CGCGA`
Response: 1.77

Request: Another: `ACCCA`
Response: 1.93

The reported measurements were obtained from the supplement of paper PMC6757056.
